Ref: patent US7595327B2

Target: recombinant human MMP-2 (Homo sapiens)
Sequence (P08253 110-660): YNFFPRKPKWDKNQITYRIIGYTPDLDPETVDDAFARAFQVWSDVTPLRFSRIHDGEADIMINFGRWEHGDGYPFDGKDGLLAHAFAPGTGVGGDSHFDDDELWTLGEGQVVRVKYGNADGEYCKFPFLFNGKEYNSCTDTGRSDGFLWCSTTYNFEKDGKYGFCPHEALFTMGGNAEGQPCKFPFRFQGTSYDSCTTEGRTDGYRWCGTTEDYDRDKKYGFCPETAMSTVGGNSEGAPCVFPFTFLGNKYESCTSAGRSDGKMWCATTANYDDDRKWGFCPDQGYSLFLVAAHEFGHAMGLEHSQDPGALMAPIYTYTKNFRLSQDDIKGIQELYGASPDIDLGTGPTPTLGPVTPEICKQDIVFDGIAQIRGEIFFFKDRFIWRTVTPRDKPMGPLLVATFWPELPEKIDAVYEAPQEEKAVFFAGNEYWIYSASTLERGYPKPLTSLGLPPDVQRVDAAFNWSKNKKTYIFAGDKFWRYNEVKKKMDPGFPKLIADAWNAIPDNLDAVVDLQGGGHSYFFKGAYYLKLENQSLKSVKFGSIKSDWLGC
Assay: In-vitro fluorescence assay of MMP-2 activity
Assay type: biochemical
pIC50: −log10 of the molar value.
Property: pIC50; scope: individual compounds

>  <Compound>
Cc1cc(COc2ccc(S(=O)(=O)N(C)[C@@H]3CC=CC[C@@H]3C(=O)NO)cc2)c2ccccc2n1 (relative stereo) [Example 15]

>  <pIC50>
< 4.78

$$$$

Proceeding to the next compound to report its pIC50.
# input Could you tell me which pIC50 is on file for Cc1cc(COc2ccc(S(=O)(=O)N[C@]3(C)CCCC[C@@H]3C(=O)NO)cc2)c2ccccc2n1 (racemic) [Example 60] ?
# output < 4.78
